System: human liver cancer cells Mahlavu
Test: Cell viability test (Resazurin), Mahlavu cells
Type: cell-based
Settings: Homo sapiens, Mahlavu, grade of the IC50 of Table 2, read-out: evaluation of ability to inhibit cell growth activity (IC50)
Protocol: Cell viability was determined with Resazurin (at a final concentration of 25 μg/mL).
pIC50: −log10 of the molar value.
Overview of reported pIC50 across a group of compounds:

compound: CC(C)=CC(=O)C[C@@H](C)[C@H]1CC[C@@]2(C)[C@@H]3[C@@H](O)C=C4[C@@H](CC[C@H](O)C4(C)C)[C@]3(C=O)CC[C@]12C
pIC50: < 3.59
//
compound: CC(C)=C[C@H](O)C[C@@H](C)[C@H]1CC[C@@]2(C)[C@@H]3[C@@H](O)C=C4[C@@H](CC[C@H](O)C4(C)C)[C@]3(C=O)CC[C@]12C
pIC50: 4.80 to 5.10
//
compound: COC1O[C@]23C=C[C@@H]4[C@@]1(CC[C@]1(C)[C@@H]([C@H](C)C/C=C/C(C)(C)O)CC[C@@]41C)[C@@H]2CC[C@H](O)C3(C)C (stereo partly drawn)
pIC50: 4.19 to 4.80

## Input Give its pIC50 value. Item: `CO[C@H]1C=C2[C@@H](CC[C@H](O)C2(C)C)[C@]2(C=O)CC[C@]3(C)[C@@H]([C@H](C)C/C=C/C(C)(C)OC)CC[C@@]3(C)[C@H]12`
## Output 4.80 to 5.10

## Input Give its pIC50 value. Item: `CC(=O)O[C@H]1C=C2[C@@H](CC[C@H](OC(C)=O)C2(C)C)[C@]2(C=O)CC[C@]3(C)[C@@H]([C@H](C)C[C@H](C=C(C)C)OC(C)=O)CC[C@@]3(C)[C@H]12`
## Output 4.19 to 4.80

## Input Give its pIC50 value. Item: `CC(=O)O[C@H]1C=C2[C@@H](CC[C@H](O)C2(C)C)[C@]2(C=O)CC[C@]3(C)[C@@H]([C@H](C)C[C@H](C=C(C)C)OC(C)=O)CC[C@@]3(C)[C@H]12`
## Output 4.80 to 5.10

## Input Give its pIC50 value. Item: COC1O[C@]23C=C[C@@H]4[C@@]1(CC[C@]1(C)[C@@H]([C@H](C)C[C@H](C=C(C)C)OC)CC[C@@]41C)[C@@H]2CC[C@H](O)C3(C)C (stereo partly drawn)
## Output < 3.59

## Input Give its pIC50 value. Item: `CC(=O)O[C@@H](C=C(C)C)C[C@@H](C)[C@H]1CC[C@@]2(C)[C@@H]3[C@@H](O)C=C4[C@@H](CC[C@H](O)C4(C)C)[C@]3(C=O)CC[C@]12C`
## Output 4.19 to 4.80

## Input Give its pIC50 value. Item: `C[C@H](C/C=C/C(C)(C)O)[C@H]1CC[C@@]2(C)[C@@H]3[C@@H](O)C=C4[C@@H](CC[C@H](O)C4(C)C)[C@]3(C=O)CC[C@]12C`
## Output < 3.59

## Input Give its pIC50 value. Item: `CC(=O)O[C@H]1C=C2[C@@H](CC[C@H](OC(C)=O)C2(C)C)[C@]2(C=O)CC[C@]3(C)[C@@H]([C@H](C)C[C@@H](O)C=C(C)C)CC[C@@]3(C)[C@H]12`
## Output 4.19 to 4.80

## Input Give its pIC50 value. Item: `CO[C@@H]1O[C@]23C=C[C@@H]4[C@@]1(CC[C@]1(C)[C@@H]([C@H](C)C/C=C/C(C)(C)OC)CC[C@@]41C)[C@@H]2CC[C@H](O)C3(C)C`
## Output < 3.59

## Input Give its pIC50 value. Item: `CC(=O)O[C@H]1CC[C@@H]2C(=C[C@H](O)[C@@H]3[C@@]2(C=O)CC[C@]2(C)[C@@H]([C@H](C)C[C@H](C=C(C)C)OC(C)=O)CC[C@@]32C)C1(C)C`
## Output 4.19 to 4.80

## Input Give its pIC50 value. Item: COC1O[C@]23C=C[C@@H]4[C@@]1(CC[C@]1(C)[C@@H]([C@H](C)C[C@@H](O)C=C(C)C)CC[C@@]41C)[C@@H]2CC[C@H](O)C3(C)C (stereo partly drawn)
## Output < 3.59

## Input Give its pIC50 value. Item: `CC(=O)O[C@H]1C=C2[C@@H](CC[C@H](OC(C)=O)C2(C)C)[C@]2(C=O)CC[C@]3(C)[C@@H]([C@H](C)C/C=C/C(C)(C)O)CC[C@@]3(C)[C@H]12`
## Output 4.19 to 4.80

## Input Give its pIC50 value. Item: `CC(=O)O[C@H]1C=C2[C@@H](CC[C@H](O)C2(C)C)[C@]2(C=O)CC[C@]3(C)[C@@H]([C@H](C)C/C=C/C(C)(C)O)CC[C@@]3(C)[C@H]12`
## Output > 5.10
